- ASSAY COMMENT: Biodistribution after day 1 in mouse kidney
- Assay type: ADME, organism-based
For each entry below, report its concentration at 1 day value.
Value expressed in ng/g; do not type the unit.

(Q) Look up concentration at 1 day for this compound: `CCc1c(CC)c2cc3nc(cc4[nH]c(c(C)c4CC)c4[nH]c(cc5nc(cc1[nH]2)C(CCC(=O)NCCOCCOCCO)=C5C)c(CC)c4C)C(C)=C3CCC(=O)NCCOCCOCCO`
(A) 3100

(Q) Look up concentration at 1 day for this compound: `CCC1=C(CC)c2cc3[nH]c(cc4[nH]c(c(C)c4CC)c4[nH]c(cc5nc(cc1n2)C(CCC(=O)NCCOCCOCCN)=C5C)c(CC)c4C)c(C)c3CCC(=O)NCCOCCOCCN`
(A) 640

(Q) Look up concentration at 1 day for this compound: C=CC1=C(C)c2cc3nc(cc4[nH]c(cc5[nH]c(cc1n2)c(C)c5CCC(=O)NC1C(O)OC(CO)C(O)C1O)c(CCC(=O)NC1C(O)OC(CO)C(O)C1O)c4C)C(C=C)=C3C (stereo unspecified) [PORPHYRIN]
(A) 700

(Q) Look up concentration at 1 day for this compound: CCc1c(CC)c2cc3nc(cc4[nH]c(c(C)c4CC)c4[nH]c(cc5nc(cc1[nH]2)C(CCC(=O)NC1C(O)OC(CO)C(O)C1O)=C5C)c(CC)c4C)C(C)=C3CCC(=O)NC1C(O)OC(CO)C(O)C1O (stereo unspecified)
(A) 1100

(Q) Look up concentration at 1 day for this compound: CCc1c(CC)c2cc3nc(cc4[nH]c(c(C)c4CC)c4[nH]c(cc5nc(cc1[nH]2)C(CCC(=O)N(CCO)CCO)=C5C)c(CC)c4C)C(C)=C3CCC(=O)N(CCO)CCO [SAPPHYRIN]
(A) 440

(Q) Look up concentration at 1 day for this compound: `CCc1c(CC)c2cc3nc(cc4[nH]c(c(C)c4CC)c4[nH]c(cc5nc(cc1[nH]2)C(CCC(=O)NCCN(CCN)CCN)=C5C)c(CC)c4C)C(C)=C3CCC(=O)NCCN(CCN)CCN`
(A) 2800

###

For each entry below, report its concentration at 6 day value.
- ASSAY COMMENT: Biodistribution after day 6 in mouse lung
- Assay type: ADME, organism-based
Value expressed in ng/g; do not type the unit.

(Q) Look up concentration at 6 day for this compound: `CCc1c(CC)c2cc3nc(cc4[nH]c(c(C)c4CC)c4[nH]c(cc5nc(cc1[nH]2)C(CCC(=O)NCCOCCOCCO)=C5C)c(CC)c4C)C(C)=C3CCC(=O)NCCOCCOCCO`
(A) 19000

(Q) Look up concentration at 6 day for this compound: CCc1c(CC)c2cc3nc(cc4[nH]c(c(C)c4CC)c4[nH]c(cc5nc(cc1[nH]2)C(CCC(=O)NC1C(O)OC(CO)C(O)C1O)=C5C)c(CC)c4C)C(C)=C3CCC(=O)NC1C(O)OC(CO)C(O)C1O (stereo unspecified)
(A) 6000

(Q) Look up concentration at 6 day for this compound: `CCc1c(CC)c2cc3nc(cc4[nH]c(c(C)c4CC)c4[nH]c(cc5nc(cc1[nH]2)C(CCC(=O)N(CCO)CCO)=C5C)c(CC)c4C)C(C)=C3CCC(=O)N(CCO)CCO`
(A) 710

(Q) Look up concentration at 6 day for this compound: `CCC1=C(CC)c2cc3[nH]c(cc4[nH]c(c(C)c4CC)c4[nH]c(cc5nc(cc1n2)C(CCC(=O)NCCOCCOCCN)=C5C)c(CC)c4C)c(C)c3CCC(=O)NCCOCCOCCN`
(A) 7000

(Q) Look up concentration at 6 day for this compound: `CCc1c(CC)c2cc3nc(cc4[nH]c(c(C)c4CC)c4[nH]c(cc5nc(cc1[nH]2)C(CCC(=O)NCCN(CCN)CCN)=C5C)c(CC)c4C)C(C)=C3CCC(=O)NCCN(CCN)CCN`
(A) 3200

(Q) Look up concentration at 6 day for this compound: C=CC1=C(C)c2cc3nc(cc4[nH]c(cc5[nH]c(cc1n2)c(C)c5CCC(=O)NC1C(O)OC(CO)C(O)C1O)c(CCC(=O)NC1C(O)OC(CO)C(O)C1O)c4C)C(C=C)=C3C (stereo unspecified)
(A) 1400

Each recorded value in this set is attributed to ChEMBL document CHEMBL1135601.
